Test system: MS2 coat protein
assay-procedure: apparent KD of MS2 coat protein, switch ON state; designed switch direction (-1 OFF switch, 1 ON switch): 1; higher = weaker reporter binding
measurement-setup: FMN input: 0 or 200 uM; Eterna round: R93 (includes R88 designs)
property-label: apparent KD of MS2 coat protein
Include the unit after the number when you answer.

Solved entries:
{"columns": ["ordered-residues", "property-label", "value-observed"],
 "data": [
  ["AACAUACAUGAGGAUCACCCAUGUUCCGGCAGGGCAGGAUAUCCAUCGAAAGUGUUAUAAGGAGAAGGGCCAUAAA [JR_SS001_Sub013]", "apparent KD of MS2 coat protein", "31.7 nM"],
  ["UUAAAACAUGAGGAUCACCCAUGUAGAAAUAUGGGAGGAUAUACGAAGACGAAAGUCAAAGUAGAAGGCCUAAAUU [Mat - Same State 1 - Eli mod - D112]", "apparent KD of MS2 coat protein", "25.2 nM"],
  ["GCGGUGUAGGUACAGGAUAUGUUGCUCGUAACAUGAGGAUCACCCAUGUACCUAUGAGAUUAAAUGCAGAAGGGUGCACACCACG [Zaalaes]", "apparent KD of MS2 coat protein", "21.5 nM"],
  ["AAGAAACAUGAGGAUCACCCAUGUCAAGAGAGACAAGGAUAUCUGAAUUAAUUAAAUUAAGGAGAAGGUGUGAAAA [71%, Same state of confusion2, 1]", "apparent KD of MS2 coat protein", "201 nM"]
]}

Documented apparent KD of MS2 coat protein of AAAUAAAAGACUAAGGAUAUGUCGCAUGACACAUGAGGAUCACCCAUGUGGUAACACAGAGGGUGGCAGAAGGUAGUCAAAAAAC [Mod 1 of Pariah 6 (Round1) by Hyphema] : 45.8 nM

Documented apparent KD of MS2 coat protein of AAAAUAUAAAGAGAGGAUAUCCAAAGAACCACAUGAGGAUCACCCAUGUAAAGAAAGAAUAAGUGGGAGAAGGCUCAAAUAAUAA [Designing denovo 24] : 27.5 nM
